Experimental target: recombinant soluble homotrimeric HA of A/duck/Yangzhou/02/05 (H8N4) (Influenza A virus A/duck/Yangzhou/02/2005(H8N4))
Method: HA microarray, BCC supernatant
Experimental setup: remark: other sources report otherwise
Recorded endpoint: Trimeric HA Binding: RLU (RLU)
State just the number; it will be interpreted in RLU.

A selection of reference data follows.
Binder	Recorded endpoint	Unit tag	Reading
TCN-546 (5089_L08) (antibody, V domains shown) VH: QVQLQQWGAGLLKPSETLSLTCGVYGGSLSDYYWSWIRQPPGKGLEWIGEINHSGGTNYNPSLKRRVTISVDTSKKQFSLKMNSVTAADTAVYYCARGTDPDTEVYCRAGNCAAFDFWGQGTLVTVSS VL: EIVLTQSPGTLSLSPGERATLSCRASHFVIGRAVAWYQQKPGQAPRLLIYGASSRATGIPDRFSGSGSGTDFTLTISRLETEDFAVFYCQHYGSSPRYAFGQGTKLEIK	Trimeric HA Binding: RLU	RLU	487
TCN-530 (5248_H10a) (antibody, V domains shown) VH: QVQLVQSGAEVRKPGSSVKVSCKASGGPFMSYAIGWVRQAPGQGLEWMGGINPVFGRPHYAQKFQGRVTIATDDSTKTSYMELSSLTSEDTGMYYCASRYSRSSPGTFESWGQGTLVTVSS VL: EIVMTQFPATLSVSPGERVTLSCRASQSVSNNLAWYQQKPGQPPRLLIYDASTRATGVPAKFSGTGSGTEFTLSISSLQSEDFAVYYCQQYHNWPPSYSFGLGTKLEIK	Trimeric HA Binding: RLU	RLU	41700

Note: attention shifts to another entry.
## Task Item TCN-550 (5096_F06) (antibody, V domains shown) VH: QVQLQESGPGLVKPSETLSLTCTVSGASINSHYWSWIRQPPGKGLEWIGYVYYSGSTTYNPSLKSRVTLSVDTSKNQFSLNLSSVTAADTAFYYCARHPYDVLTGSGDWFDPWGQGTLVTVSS VL: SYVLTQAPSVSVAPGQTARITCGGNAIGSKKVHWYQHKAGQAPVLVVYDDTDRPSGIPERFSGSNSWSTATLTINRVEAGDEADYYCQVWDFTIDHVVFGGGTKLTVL has what recorded Trimeric HA Binding: RLU?
## Result 407
